- TARGET: T1, Ax1 protein, extracellular domain (human, UniProt P30530 26-451)
- T1 construct: extracellular domain; also called Axl; Ark
- T1 sequence (looked up): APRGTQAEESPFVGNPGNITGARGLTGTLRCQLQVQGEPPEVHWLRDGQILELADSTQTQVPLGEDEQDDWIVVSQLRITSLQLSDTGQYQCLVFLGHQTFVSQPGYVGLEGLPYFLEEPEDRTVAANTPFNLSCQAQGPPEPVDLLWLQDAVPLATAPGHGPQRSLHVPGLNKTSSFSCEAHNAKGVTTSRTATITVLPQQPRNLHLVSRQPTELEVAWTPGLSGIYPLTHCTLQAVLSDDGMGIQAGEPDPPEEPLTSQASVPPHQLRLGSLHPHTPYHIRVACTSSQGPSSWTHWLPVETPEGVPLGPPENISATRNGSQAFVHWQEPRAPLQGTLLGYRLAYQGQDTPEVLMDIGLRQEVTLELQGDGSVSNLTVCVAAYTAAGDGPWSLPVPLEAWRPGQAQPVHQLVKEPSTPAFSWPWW
- ASSAY_SUMMARY: ELISA, mutant diluted 1:9
MEASURED_ENDPOINT: Affinity ELISA CPE mutant ratio (1:9, pH 6.0/7.4)
Please state the value as a number alone, without comment.

get_value(item= HC-B102D (antibody, V domains shown, CPE single point mutant; printed B102, read as E102 (other rows print HC-E102x)) VH: EVQLVQSGAEVKKPGATVKISCKVSGYSFTGHTMNWIRQPPGKGLEWIGLIKPSNGGTSYNQKFKGRVTISADKSISTAYLQWSSLKASDTAMYYCAHGHYDSYFAMDYWGQGTLVTVSS VL: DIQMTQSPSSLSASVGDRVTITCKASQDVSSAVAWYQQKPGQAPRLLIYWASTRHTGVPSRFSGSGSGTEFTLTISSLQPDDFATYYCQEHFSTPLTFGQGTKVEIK , readout=Affinity ELISA CPE mutant ratio (1:9, pH 6.0/7.4)) returns 2.85

In plain terms, HC-W110L (antibody, V domains shown) VH: EVQLVQSGAEVKKPGATVKISCKVSGYSFTGHTMNWIRQPPGKGLEWIGLIKPSNGGTSYNQKFKGRVTISADKSISTAYLQWSSLKASDTAMYYCAHGHYESYFAMDYLGQGTLVTVSS VL: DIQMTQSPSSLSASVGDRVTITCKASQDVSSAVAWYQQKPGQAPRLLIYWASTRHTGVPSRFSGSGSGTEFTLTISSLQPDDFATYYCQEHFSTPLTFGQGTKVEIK has a documented Affinity ELISA CPE mutant ratio (1:9, pH 6.0/7.4) of 0.924

Documented Affinity ELISA CPE mutant ratio (1:9, pH 6.0/7.4) of LC-A051P (antibody, V domains shown, CPE single point mutant) VH: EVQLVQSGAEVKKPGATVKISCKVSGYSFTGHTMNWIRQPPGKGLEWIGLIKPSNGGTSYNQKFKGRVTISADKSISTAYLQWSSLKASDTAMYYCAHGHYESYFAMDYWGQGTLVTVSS VL: DIQMTQSPSSLSASVGDRVTITCKASQDVSSAVAWYQQKPGQAPRLLIYWPSTRHTGVPSRFSGSGSGTEFTLTISSLQPDDFATYYCQEHFSTPLTFGQGTKVEIK : 1.57
